molecular target: T1, cynomolgus monkey (cyno) complement protein C5 (cynomolgus monkey, UniProt A0A2K5U1T1 19-1676); experiment: SPR (Biacore), pH 6.0
T1 construct: also called cC5; cyno C5
parameter-measured: kon (M⁻¹ s⁻¹)
# value in M⁻¹ s⁻¹; strip the unit string

Note down kon recorded for CRL0484 (bispecific antibody, anti-C5 VHH / (G4S)3 / anti-albumin VHH fusion, purified by Protein A; also called CRL0484 (C5/HSA)) EVQLVESGGGLVQPGGSLRLSCAASGRTFSGILSPYAVGWFRQAPGKGLEFVSTITSGGSAIYTDSVKGRFTISRDNAKDSLYLQMNSLRAEDTAVYYCAVRTRRYGSNLGEVPQENEYGYWGQGTLVTVSSGGGGSGGGGSGGGGSEVQLVESGGGLVKPGGSLRLSCAASGRPVSNYAAAWFRQAPGKEREFVSAINWQKTATYADSVKGRFTISRDNAKNSLYLQMNSLRAEDTAVYYCAAVFRVVAPKTQYDYDYWGQGTLVTVSS
48200
